B1: CPEB3 Ribozyme (parent)
chain: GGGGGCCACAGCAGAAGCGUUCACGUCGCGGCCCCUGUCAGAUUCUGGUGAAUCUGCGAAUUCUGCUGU

# Variants of: B1
# experiment: self-cleavage, relative activity (ratio to wild type); higher = more cleavage; co-transcriptional
Param threshold (0.4) applies to self-cleavage; output Satisfied when value >= threshold, Not satisfied when value < threshold.

Dear colleague, could you confirm whether GUGGGCCACAGCAGAAGCGUUCACGUCGCGGCCCCUGUCAGAUUCUGGUGAAUCUGCGAAUUGUGCUGU [G2U C63G] has self-cleavage at or above 0.4? Not satisfied

Is self-cleavage at least 0.4? Consider GGGGGACACAGCAGAAGCGUUCACGUCGCGGCCCCUGUCAGAAUCUGGUGAAUCUGCGAAUUCUGCUGU [C6A U43A] Not satisfied

Given GGGGUCCACAGCACAAGCGUUCACGUCGCGGCCCCUGUCAGAUUCUGGUGAAUCUGCGAAUUCUGCUGU [G5U G14C] , state whether its self-cleavage is at least 0.4. Not satisfied

I'd appreciate it if you could say whether GGGGGCCACGGAAGAAGCGUUCACGUCGCGGCCCCUGUCAGAUUCUGGUGAAUCUGCGAAUUCUGCUGU [A10G C12A] has self-cleavage at least equal to 0.4. Not satisfied

Entry GGGGGCCACAGCAGAAGCGUUCACGUCGCGGCCCCUGUCAGAUUCUUGUGAAUGUGCGAAUUCUGCUGU [G47U C54G] : is its self-cleavage no less than 0.4? Satisfied

Can GGGGGCCACAGCGGAUGCGUUCACGUCGCGGCCCCUGUCAGAUUCUGGUGAAUCUGCGAAUUCUGCUGU [A13G A16U] be said to have self-cleavage at or above 0.4? Satisfied

Kindly determine if self-cleavage recorded for GGGGGCCACAGCAGAAGCGUUCACGUCGCGGCCCCUGUCAGAUUCUGGUGAAUCUGAGAAUUCUGCUGU [C57A] is above or exactly 0.4. Not satisfied

Answer whether self-cleavage of GGGGGCCACAGCAGAAGCGUUCACGUCGCGGCCCCUGUCAGAUCCUGGUAAAUCUGCGAAUUCUGCUGU [U44C G50A] is greater than or equal to 0.4. Satisfied

Is self-cleavage for GGGGGCCACAGCAGAAGCGUUCAUGUCGCGGCCCCUAUCAGAUUCUGGUGAAUCUGCGAAUUCUGCUGU [C24U G37A] at or above 0.4? Not satisfied

Does self-cleavage meet or surpass 0.4 for GGGGGCCACAGCAGAAGCGUUCACGUCGCGGCCCCUGUCAGACUCUGGUGAGUCUGCGAAUUCUGCUGU [U43C A52G] ? Satisfied

Item GGGGGCCACAGCAGCAGCGUUCACGUCGCGGCCCCUGUCAGAUUCUGGUGACUCUGCGAAUUCUGCUGU [A15C A52C] with self-cleavage of 0.4 or above? Satisfied

API: above_or_equal(metric=self-cleavage, cutoff=0.4) for item GGGGGCCACAGCAGAAUCGUUCACGUCGCGGCCCCUGUCAGAUUCUGGUGAAUCUGCGAAGUCUGCUGU [G17U U61G] Not satisfied

Dear colleague, could you confirm whether GGGGGCCAAAGCAGAAGCGUUCACGGCGCGGCCCCUGUCAGAUUCUGGUGAAUCUGCGAAUUCUGCUGU [C9A U26G] has self-cleavage at or above 0.4? Satisfied

Check the entry GGGGGCCACAGCAGAAGCGUUCACGUCGCGGCCCCUGUCAGCUUCUGGUGAAUCUGCUAAUUCUGCUGU [A42C G58U] : does self-cleavage equal or exceed 0.4? Satisfied

Kindly determine if self-cleavage recorded for GGGGGCCACAGCUGAAGCGUUCACGUCGCGGCCCCUGUCAGAUUCUGGUGAAUCUGCGUAUUCUGCUGU [A13U A59U] is above or exactly 0.4. Satisfied

Exam item: decide whether the reported self-cleavage for GGGGGCCACAGCAGAAGCGUUCACGUCGCGGCCCAUGUCAGAUUCUGGUAAAUCUGCGAAUUCUGCUGU [C35A G50A] is at least 0.4. Not satisfied

For this variant, is measured self-cleavage 0.4 or higher? GGGGGCCACAACAGAAGCGAUCACGUCGCGGCCCCUGUCAGAUUCUGGUGAAUCUGCGAAUUCUGCUGU [G11A U20A] Not satisfied

Decide: self-cleavage of GGGGGCCACAGCAGAAGCGUUCACGUCGCGGCUCCUGUUAGAUUCUGGUGAAUCUGCGAAUUCUGCUGU [C33U C39U] >= 0.4? Satisfied

Could you please find out whether GGGGGCCACAGCAGAGGCGUUCACGUCGCGGCCCCUGUCAGAUUCUGGUGAAUCUGCGUAUUCUGCUGU [A16G A59U] has self-cleavage that meets 0.4 or exceeds it? Satisfied

Kindly determine if self-cleavage recorded for GGGGGCCACAGCAGAAGCGUUCACGUCGCGGCCCAUGUCAGAUUCUGCUGAAUCUGCGAAUUCUGCUGU [C35A G48C] is above or exactly 0.4. Not satisfied

Hello, I need to know if GGGGGCCACAGAAGAAGCGUUCACGUCGCGGCCCCUGUCAGAUUCUGGUGAAUUUGCGAAUUCUGCUGU [C12A C54U] has measured self-cleavage not below 0.4. Thanks! Satisfied

Threshold query (self-cleavage >= 0.4) on GGGGGACACAGCAGAAGCGUUCACGUCGCGGCCCUUGUCAGAUUCUGGUGAAUCUGCGAAUUCUGCUGU [C6A C35U] Not satisfied

Origin of values: the RNAGym collection of RNA variant scans (doi:10.7554/elife.80360)
